Test: plasmodial surface anion channel blockers, osmotic lysis – cell-based, P. falciparum Indochina, OD700, 18 h, primary screen (AID 1157)
Details: P. falciparum Indochina infected erythrocytes, osmotic lysis OD700, 18 h; higher = more signal, called active from +8 up or from −8 down
Listed here: items and their measured z-score.

MOLECULE | z-score
COC(=O)C(CC#Cc1ccc2c(c1)[C@]1(C(=O)N2)[C@H](c2ccccc2OCCO)N2[C@H](c3ccccc3)[C@H](c3ccccc3)OC(=O)[C@H]2[C@@H]1C(=O)Nc1nc2ccccc2s1)C(=O)OC | 1.77
Cc1ccc(-c2cccc(=O)o2)cc1 | 0.609
COCCOC(=O)N1C(=O)[C@@]2(c3cc(C#CC4(O)CCCCCC4)ccc31)[C@H](C(=O)N1CCN(c3ncccn3)CC1)[C@H]1C(=O)O[C@H](c3ccccc3)[C@H](c3ccccc3)N1[C@@H]2c1ccc(O)cc1 | 0.613
COc1ccc([Si](C)(C)[C@@H]2[C@@H](CC(=O)N(CCO)Cc3ccccc3)O[C@]3(C(=O)N(Cc4ccc(N5CCOC5=O)cc4)c4ccccc43)[C@H]2C)cc1 | 0.821
[N-]=[N+]=NCc1ccccc1[C@H]1OC(c2ccc(OCCCO)cc2)=N[C@@]1(Cc1ccccc1)C(N)=O | 2.75
C=CCC(OC(C)=O)[C@@H]1[C@@H](N(Cc2ccc(-c3cccc(C(F)(F)F)c3)o2)C(=O)c2cccc3ccccc23)c2cc(OCCCO)ccc2N1C(=O)c1ccc(-c2ccccc2)cc1 (stereo partly drawn) | 0.485
C[C@]12C(=O)N(CCCO)[C@@H]3C(=O)N(c4ccc(Cl)cc4)CC=CC31O[C@@H]1/C=C\CCCOC(=O)C12 (stereo partly drawn) | 0.211
COCCOC(=O)N1C(=O)[C@@]2(c3cc(C#CCCO)ccc31)[C@H](c1ccc(OCCO)cc1)N1[C@H](c3ccccc3)[C@H](c3ccccc3)OC(=O)[C@H]1[C@@H]2C(=O)N1CCc2cc(OC)c(OC)cc2C1 | 1.1
CC(C)C[C@@H]1NC(=O)[C@@H]2C[C@H](C(=O)NCc3ccc(F)cc3)[C@H](c3ccc(O)cc3)N2C1=O | 0.424
CCOC(=O)C[C@H]1[C@H](OC(=O)c2cc3ccccc3oc2=O)[C@@H](NC(=O)c2ccc3ccccc3n2)c2cc(OCCCO)ccc2N1C(=O)c1ccc2ccccc2n1 | 0.647
CCOc1cc(C(O)C2C=CC3C(=O)NC(=O)C3N2Nc2ccccn2)ccc1O (stereo not drawn) | 0.828
CCCCCCC#C[Si](O[C@H](c1ccccc1)c1cn(Cc2cccc(Cl)c2)nn1)(C(C)C)C(C)C | 0.162
C=CCNC(=O)[C@H]1[C@@H]2C(=O)O[C@@H](c3ccccc3)[C@@H](c3ccccc3)N2[C@@H](c2ccc(OCCO)cc2)[C@]12C(=O)N(C(=O)OCCOC)c1ccc(C#CC3=CCCCC3)cc12 | 0.948

---

Assay: viability profiling in MM1S myeloma cells – cell-based, resazurin fluorescence, basal, 24 h, PK04 Diversity Set, profiling panel (AID 1174);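 also: MM1S multiple myeloma cell line; test concentration not given here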
Conditions: called active from +8 up or from −8 down
Active and inactive are the calls of the source.
Outcomes: yes (1) for active, no (0) for inactive

MOLECULE | LABEL
COCC1=C([C@H](O)CCc2ccccc2)[C@H](CO)[C@@H]2C(=O)N(C)C(=O)[C@@H]2C1 | no (0)
O=C1O[C@H](c2ccccc2)[C@H](c2ccccc2)N2[C@H]1[C@@H](C(=O)N1CCCCCCC1)[C@]1(C(=O)Nc3ccc(C#CCCO)cc31)[C@H]2c1ccc(OCCO)cc1 | no (0)
CC(=O)NCCCC[C@@H]1NC(=O)[C@H]2C[C@@H](C(=O)NCCCCCN)[C@@H](c3cccc(OCCO)c3)N2C1=O | no (0)
Cc1ccc(C(C)CC(O)C2C=CC3C(=O)N(Cc4ccccc4)C(=O)C3N2n2cnnc2)o1 (configuration not stated) | no (0)
O=C1O[C@H](c2ccccc2)[C@H](c2ccccc2)N2[C@H]1[C@@H](C(=O)NC[C@H](O)c1ccccc1)[C@]1(C(=O)Nc3ccccc31)[C@H]2c1ccccc1OCCO | yes (1)
COC(=O)[C@@]1(Cc2ccc(OC)cc2)[C@H]2c3cc(C(=O)N4CCCC4)n(CCc4ccc(O)c(OC)c4)c3C[C@H]2CN1C(=O)c1ccccc1 | no (0)
N#Cc1ccc(NN2C(C(O)c3ccccc3)C=CC3C(=O)N(c4ccccc4)C(=O)C32)cc1 (configuration not stated) | no (0)
